Listed next: entries and their corresponding protein stability index.
B1: IFRG15 (parent)
chain: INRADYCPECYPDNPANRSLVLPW

Variants of: B1
Experiment: protein stability index of a GFP-peptide fusion (GPS, HEK-293T) (PSI 1-6); higher = more stable;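 note: lentivirally expressed fusions sorted by FACS into six bins by GFP to DsRed ratio, PSI derived from sequencing read proportions per bin multiplied by bin number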
Settings: c terminus: a fixed tail appended
When you answer, write just the number.

Field: example entries. Status: answers known.
| INPUT_SEQUENCE | MEASURED |
| --- | --- |
| INRADYCPECYPDNPANQSLVLPW [R18Q] | 1.99 |
| INRADYCPECYPDNCANRSLVLPW [P15C] | 2.02 |
| RNRADYCPECYPDNPANRSLVLPW [I1R] | 2.05 |

Any idea what protein stability index was measured for INRADYCPECYQDNPANRSLVLPW [P12Q] ? 2.11

Any idea what protein stability index was measured for INRADYCPEQYPDNPANRSLVLPW [C10Q] ? 3.09

Any idea what protein stability index was measured for INRADYCWECYPDNPANRSLVLPW [P8W] ? 2.02
